Values compiled from patent US20170182124A1.

assayed-target: FGF receptor/BKL complex
Sequence (Q86Z14 whole entry, one chain of several): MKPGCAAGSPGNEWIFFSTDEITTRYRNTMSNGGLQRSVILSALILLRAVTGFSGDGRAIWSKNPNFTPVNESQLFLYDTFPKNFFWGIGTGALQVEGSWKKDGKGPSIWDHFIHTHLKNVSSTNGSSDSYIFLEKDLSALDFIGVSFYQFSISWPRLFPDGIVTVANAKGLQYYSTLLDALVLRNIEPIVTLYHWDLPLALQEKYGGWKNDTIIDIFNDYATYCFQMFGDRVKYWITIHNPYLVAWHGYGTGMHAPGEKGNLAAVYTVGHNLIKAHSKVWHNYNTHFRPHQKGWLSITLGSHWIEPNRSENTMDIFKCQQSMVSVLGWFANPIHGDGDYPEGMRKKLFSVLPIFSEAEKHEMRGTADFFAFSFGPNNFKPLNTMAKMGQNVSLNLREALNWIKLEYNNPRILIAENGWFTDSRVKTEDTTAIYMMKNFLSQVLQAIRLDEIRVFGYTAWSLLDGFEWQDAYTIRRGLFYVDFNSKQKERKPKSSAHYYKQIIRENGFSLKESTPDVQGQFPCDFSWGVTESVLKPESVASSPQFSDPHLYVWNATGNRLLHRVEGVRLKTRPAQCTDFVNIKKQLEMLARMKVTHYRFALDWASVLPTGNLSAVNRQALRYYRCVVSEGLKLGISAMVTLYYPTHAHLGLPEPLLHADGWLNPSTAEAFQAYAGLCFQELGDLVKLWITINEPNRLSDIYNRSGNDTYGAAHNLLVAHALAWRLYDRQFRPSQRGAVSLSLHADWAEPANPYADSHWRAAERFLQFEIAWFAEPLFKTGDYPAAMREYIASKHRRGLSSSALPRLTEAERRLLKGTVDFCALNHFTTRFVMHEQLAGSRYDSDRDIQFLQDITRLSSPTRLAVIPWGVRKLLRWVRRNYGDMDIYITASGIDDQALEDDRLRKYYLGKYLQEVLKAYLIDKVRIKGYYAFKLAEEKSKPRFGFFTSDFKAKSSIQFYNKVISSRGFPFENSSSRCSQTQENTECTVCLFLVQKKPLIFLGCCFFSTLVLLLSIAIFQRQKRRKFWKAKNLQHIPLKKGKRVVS
measurement-description: FGF receptor potency in an Erk phosphorylation assay in HEK293 overexpressing human BKL
Assay type: cell-based
assay-conditions: HEK293/BKL cells, pERK after 12 minutes, presence of 0.1% HSA; read-out: EC50 (0.1% HSA)
Experimental: In order to test the binding of the FGF21 derivatives to albumin, the assay was performed in the absence of serum albumin as well as in the presence of human serum albumin (HSA) (0.1% final assay concentration). […] HEK293 cells endogenously express several FGF receptors, including FGFR1c, FGFR3c and FGFR4. […] As described below the level of pERK is measured after 12 minutes of stimulation with a range of FGF21 analogue concentrations. […]
pEC50: −log10 of the molar value.
Everything with pEC50 lower than 7 is Not met; everything else, including exactly 7, is Met.

Here are 5 molecules together with their reported answers.
Does the molecule (2S)-6-acetamido-2-[[2-[2-[2-[[2-[2-[2-[[(4S)-4-carboxy-4-(16-sulfohexadecanoylamino)butanoyl]amino]ethoxy]ethoxy]acetyl]amino]ethoxy]ethoxy]acetyl]amino]hexadecanoic … (protein) HPIPDSSPLLQFGGQVRQRYLYTDDAQQTEAHLEIREDGTVGGAADQSPESLLQLKALKPGVIQILGVKTSRFLCQRPDGALYGSLHFDPEACSFRELLLEDGYNVYQSEAHGLPLHLPGQKSPHRDPAPRGPARFLPLPGLPPALPEPPGILAPQPPDVGSSDPLSLVGPSQGRSPSYCS have recorded pEC50 that is 7 or more?
Met

Does the molecule S{Beta-180}-[2-[2-[[2-[2-[2-[[2-[2-[2-[[(4S)-4-carboxy-4-(15-carboxypentadecanoyl-amino)butanoyl]amino]ethoxy]ethoxy]acetyl]amino]ethoxy]ethoxy]acetyl]amino]-ethylamino]-2-oxoethyl]-Ala[Gln121,Leu168, … (protein) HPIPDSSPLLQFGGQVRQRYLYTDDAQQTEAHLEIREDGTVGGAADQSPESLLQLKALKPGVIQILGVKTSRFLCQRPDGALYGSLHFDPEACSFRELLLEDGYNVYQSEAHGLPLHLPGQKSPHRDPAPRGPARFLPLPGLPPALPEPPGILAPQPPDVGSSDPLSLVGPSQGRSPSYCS have recorded pEC50 that is 7 or more?
Met

Does the molecule S{Beta-181}-[2-[2-[[2-[2-[2-[[2-[2-[2-[[(4S)-4-carboxy-4-(17-carboxyheptadecanoyl-amino)butanoyl]amino]ethoxy]ethoxy]acetyl]amino]ethoxy]ethoxy]acetyl]amino]-ethylamino]-2-oxoethyl]-Ala[Gln121,Leu168, … (protein) HPIPDSSPLLQFGGQVRQRYLYTDDAQQTEAHLEIREDGTVGGAADQSPESLLQLKALKPGVIQILGVKTSRFLCQRPDGALYGSLHFDPEACSFRELLLEDGYNVYQSEAHGLPLHLPGQKSPHRDPAPRGPARFLPLPGLPPALPEPPGILAPQPPDVGSSDPLSLVGPSQGRSPSYAC have recorded pEC50 that is 7 or more?
Not met

Does the molecule 18-[[(1S)-4-[2-[2-[2-[2-[2-[2-(2-acetamidoethylamino)-2-oxo-ethoxy]ethoxy]ethylamino]-2-oxo-ethoxy]ethoxy]ethylamino]-1-carboxy-4-oxo-butyl]amino]-18-oxo-octadecanoic … (protein) HPIPDSSPLLQFGGQVRQRYLYTDDAQQTEAHLEIREDGTVGGAADQSPESLLQLKALKPGVIQILGVKTSRFLCQRPDGALYGSLHFDPEACSFRELLLEDGYNVYQSEAHGLPLHLPGQKSPHRDPAPRGPARFLPLPGLPPALPEPPGILAPQPPDVGSSDPLSLVCPSQGRSPSYAS have recorded pEC50 that is 7 or more?
Met

Does the molecule S{Beta-180}-[2-[2-[[2-[2-[2-[[2-[2-[2-[[(4S)-4-carboxy-4-(17-carboxyheptadecanoyl-amino)butanoyl]amino]ethoxy]ethoxy]acetyl]amino]ethoxy]ethoxy]acetyl]amino]-ethylamino]-2-oxoethyl]-Ala[Gln121,Leu168, … (protein) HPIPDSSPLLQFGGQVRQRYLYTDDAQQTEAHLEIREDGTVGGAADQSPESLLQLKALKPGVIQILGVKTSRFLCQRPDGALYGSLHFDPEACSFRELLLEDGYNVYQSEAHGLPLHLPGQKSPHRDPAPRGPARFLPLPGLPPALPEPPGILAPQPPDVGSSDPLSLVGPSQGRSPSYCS have recorded pEC50 that is 7 or more?
Met

Turning now to a further record.
Does the molecule S{Beta-181}-[2-[2-[[2-[2-[2-[[2-[2-[2-[[(4S)-4-carboxy-4-(19-carboxynonadecanoyl-amino)butanoyl]amino]ethoxy]ethoxy]acetyl]amino]ethoxy]ethoxy]acetyl]amino]-ethylamino]-2-oxoethyl]-Ala[Gln121,Leu168,C … (protein) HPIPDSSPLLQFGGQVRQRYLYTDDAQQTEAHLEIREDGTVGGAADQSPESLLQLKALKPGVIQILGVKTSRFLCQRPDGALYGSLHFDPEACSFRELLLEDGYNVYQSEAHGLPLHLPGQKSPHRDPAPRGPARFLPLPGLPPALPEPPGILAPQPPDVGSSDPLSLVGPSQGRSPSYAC have recorded pEC50 that is 7 or more?
Not met
